# Tested on: BMDM
# method notes: Induction of macrophage repolarization in FR-beta expressing IL-4 differentiated M2 phenotype mouse BMDM cells assessed as reprogramming to M1 phenotype by measuring downregulation of Arg1 mRNA expression at 10 nM incubated for 24 hrs by RT-qPCR analysis
# Format: functional, cell-based
Activity calls are given as the source filed them. The calls are words filed in the database; no cut-off is given here.

structure string: CCCCc1nc2c(N)nc3ccccc3c2n1Cc1ccc(CN)cc1
Activity: Active
--
structure string: CCCCc1nc2c(N)nc3ccccc3c2n1Cc1ccc(CNC(=O)OCCSSC[C@H](NC(=O)CC[C@H](NC(=O)CNC(=O)Cc2cc3c(=O)[nH]c(N)nc3[nH]2)C(=O)O)C(=O)O)cc1
Activity: Active

###

# Test system: BMDM
# method notes: Induction of macrophage repolarization in FR-beta expressing IL-4 differentiated M2 phenotype mouse BMDM cells assessed as reprogramming to M1 phenotype by measuring upregulation of iNOS mRNA expression at 10 nM incubated for 24 hrs by RT-qPCR analysis
# Format: functional, cell-based
Activity calls are given as the source filed them. No cut-off for these calls is given here.

structure string: CCCCc1nc2c(N)nc3ccccc3c2n1Cc1ccc(CNC(=O)OCCSSC[C@H](NC(=O)CC[C@H](NC(=O)CNC(=O)Cc2cc3c(=O)[nH]c(N)nc3[nH]2)C(=O)O)C(=O)O)cc1
Activity: Active
//
structure string: CCCCc1nc2c(N)nc3ccccc3c2n1Cc1ccc(CN)cc1
Activity: Active

###

# method notes: Stability of the compound in PBS measured at 4 degC and for 15 days
# Type: physicochemical
# test settings: time 15 day, read-out: Stability
Listing of entries alongside the reported remaining at 360 h.
quantity measured: remaining at 360 h

structure string: CCCCc1nc2c(N)nc3ccccc3c2n1Cc1ccc(CNC(=O)OCCSSC[C@H](NC(=O)CC[C@H](NC(=O)c2ccc(NCc3cnc4nc(N)[nH]c(=O)c4n3)cc2)C(=O)O)C(=O)O)cc1
meas value: < 95%

structure string: CCCCc1nc2c(N)nc3ccccc3c2n1Cc1ccc(CNC(=O)OCCSSC[C@H](NC(=O)CC[C@H](NC(=O)c2ccc(CCCCc3cc4c(=O)[nH]c(N)nc4[nH]3)cc2)C(=O)O)C(=O)O)cc1
meas value: > 95%

structure string: CCCCc1nc2c(N)nc3ccccc3c2n1Cc1ccc(CNC(=O)OCCSSC[C@H](NC(=O)CC[C@H](NC(=O)CNC(=O)Cc2cc3c(=O)[nH]c(N)nc3[nH]2)C(=O)O)C(=O)O)cc1
meas value: > 95%

structure string: CCCCc1nc2c(N)nc3ccccc3c2n1Cc1ccc(CNC(=O)OCCSSC[C@H](NC(=O)CC[C@H](NC(=O)c2ccc(CCCCc3cc4c(=O)[nH]c(N)nc4[nH]3)s2)C(=O)O)C(=O)O)cc1
meas value: > 95%

###

# Test system: Mus musculus
# method notes: In vivo transition from anti-inflammatory to pro-inflammatory phenotypes in BALB/c mouse xenografted with mouse 4T1 cells assessed as decrease in proportion of Ly6C+ and Ly6G+ cells within CD45+ population at 1 mg/kg, iv qd for 14 days by flow cytometry
# Assay type: functional, organism-based
# test settings: time 14.0 day
Calls of active or inactive are those of the source. No cut-off for these calls is given here.

structure string: CCCCc1nc2c(N)nc3ccccc3c2n1Cc1ccc(CNC(=O)OCCSSC[C@H](NC(=O)CC[C@H](NC(=O)c2ccc(NCc3cnc4nc(N)[nH]c(=O)c4n3)cc2)C(=O)O)C(=O)O)cc1
Activity: Active
//
structure string: CCCCc1nc2c(N)nc3ccccc3c2n1Cc1ccc(CNC(=O)OCCSSC[C@H](NC(=O)CC[C@H](NC(=O)c2ccc(CCCCc3cc4c(=O)[nH]c(N)nc4[nH]3)cc2)C(=O)O)C(=O)O)cc1
Activity: Active
//
structure string: CCCCc1nc2c(N)nc3ccccc3c2n1Cc1ccc(CNC(=O)OCCSSC[C@H](NC(=O)CC[C@H](NC(=O)c2ccc(CCCCc3cc4c(=O)[nH]c(N)nc4[nH]3)s2)C(=O)O)C(=O)O)cc1
Activity: Active
//
structure string: CCCCc1nc2c(N)nc3ccccc3c2n1Cc1ccc(CNC(=O)OCCSSC[C@H](NC(=O)CC[C@H](NC(=O)CNC(=O)Cc2cc3c(=O)[nH]c(N)nc3[nH]2)C(=O)O)C(=O)O)cc1
Activity: Active
